- Test system: UACC-257 melanoma
- Test Summary: NCI tumour cell line growth inhibition, 48 h
TGI overview

As a guide, the following entries are already answered.
                                   compound  experimental_target  assay_result
0      O=[N+]([O-])c1ccc(Nc2nc3ccccc3s2)cc1    UACC-257 melanoma       75.6 µM
1  Cc1ccc(Nc2nc(N)nc3c2ncn3C2OC(CO)C(O)C2O)cc1 (stereo not given)    UACC-257 melanoma      > 100 µM

IN: Please list TGI recorded for the compound COc1cccc2c(Nc3ccc(S(=O)(=O)NC(C)=O)cc3)c3ccc([N+](=O)[O-])cc3nc12
OUT: > 54.9 µM

IN: Query TGI for CCSC1=N/C(=C\c2ccco2)C(Cl)=N1
OUT: > 100 µM

IN: Query TGI for Cc1ccc(NC(=O)CC(=O)n2nc(-c3ccccc3)c(N=Nc3ccccc3Cl)c2-c2ccccc2)cc1
OUT: > 100 µM

---

- System: K-562 leukemia
- Test Summary: NCI tumour cell line growth inhibition, 48 h; in the data active = GI50 below about 0.43 µM; inactive = the rest
// allowed return values: 1 (yes) = active, 0 (no) = inactive

Please review the entries below; each comes with its answer.
>>> print(df.to_string())
                                   compound    class
0  c1cn2cc(-c3ccc4ncn(C5CCCCC5)c4c3)nc(-c3ccc4c(c3)ncn4C3CCCCC3)c2n1   0 (no)
1  O=c1[nH]ccc2nc(N3CCC(O)CC3)nc(Nc3cccc(C(F)(F)F)c3)c12   0 (no)
2  COc1ccc2c(c1)OC1=C(C(=O)OC1)C2c1cc(OC)c(OC)c(OC)c1 (stereo unspecified)  1 (yes)
3  NC(=N\N=C/c1cccc([N+](=O)[O-])c1)/C(N)=N\N=C/c1cccc([N+](=O)[O-])c1   0 (no)
4  O=C([O][Hg][CH2]C1COCC([CH2][Hg][O]C(=O)c2ccccc2)O1)c1ccccc1 (stereo unspecified)   0 (no)

IN: Which outcome was assigned to COc1ccc2c(CN3CCC[C@H]3C(=O)O)cc3cc4c(cc3c2c1)OCO4 in this test?
OUT: 0 (no)

IN: Assay result, entry COc1cc2c(cc1OCCCCCCN1CCN(c3ncnc4ccccc34)CC1)N=CC1CCCN1C2=O (stereo unspecified) — outcome?
OUT: 1 (yes)

IN: Recorded test outcome, item CC1(C)CC(n2cnc(-c3ccc(F)cc3)c2-c2ccnc(N)n2)CC(C)(C)N1
OUT: 0 (no)

IN: Hi team, can someone confirm the assay call for C=CCN1C=CC(=O)[C@H](O[Si](C)(C)C(C)(C)C)[C@@H]1/C=C/c1ccccc1 ?
OUT: 0 (no)

IN: Status in this test for C=CCN(CC=C)C(=O)c1cc(C)nc2c1c(=O)n(-c1ccccc1)c(=O)n2CC(O)CN1CCN(c2ncccn2)CC1 (stereo unspecified) ?
OUT: 0 (no)

IN: Would you mind telling me which call this test gave COc1ccc(C2=C(c3ccc(OC)c(OC)c3)C(=O)OC2)cc1 ?
OUT: 1 (yes)

---

- System: EKVX NSCLC
- Test Summary: NCI tumour cell line growth inhibition, 48 h
Documented TGI across a set of molecules

                                   molecule  assay_result
0  CCOC(=O)[C@@H]1ON2O[C@H](OC3CCCC3(c3ccccc3)c3ccccc3)C[C@H]3OC(=O)[C@@H]1C32 (stereo not given in full)      > 100 µM

Now for another entry.
IN: Please look at this molecule and report its TGI: CCOC(=O)NC(=O)c1cn(CCCOC(=O)CCCCCCCCCCC(=O)OCCCn2cc(C(=O)NC(=O)OCC)c(=O)n(C)c2=O)c(=O)n(C)c1=O
OUT: > 100 µM
